Biological target: T1, human EphA5 (Homo sapiens, UniProt P54756)
T1 construct: a protein of the extracellular region of each human Eph receptor fused with the SEAP protein and the His tag; made in house; host or cells: Expi293F cells (culture supernatant)
T1 sequence (P54756 25-573 limits assumed): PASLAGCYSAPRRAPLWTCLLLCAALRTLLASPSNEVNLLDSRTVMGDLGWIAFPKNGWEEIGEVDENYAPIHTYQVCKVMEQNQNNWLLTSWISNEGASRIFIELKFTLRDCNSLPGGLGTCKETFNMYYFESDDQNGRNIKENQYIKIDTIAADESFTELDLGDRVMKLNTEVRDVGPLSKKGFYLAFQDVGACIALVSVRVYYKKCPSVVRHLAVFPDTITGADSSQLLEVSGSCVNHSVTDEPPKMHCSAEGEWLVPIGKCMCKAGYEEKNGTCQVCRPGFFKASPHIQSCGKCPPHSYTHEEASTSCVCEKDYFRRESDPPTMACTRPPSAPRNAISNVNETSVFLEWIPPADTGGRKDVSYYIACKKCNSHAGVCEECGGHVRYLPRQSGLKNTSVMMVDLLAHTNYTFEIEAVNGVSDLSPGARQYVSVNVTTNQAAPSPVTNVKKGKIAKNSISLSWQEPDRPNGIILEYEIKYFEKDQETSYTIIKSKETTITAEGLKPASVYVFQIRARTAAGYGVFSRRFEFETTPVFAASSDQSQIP
Experiment: Selectivity ELISA of humanized antibodies for human Eph receptor
Type: binding
Details: coated protein 1 nM
Listing of recorded hEphA5-SEAP-: absorbance at 450 nm, percentage with respect to hEphA4-SEAP-His as 100% by entry.
Measured metric: hEphA5-SEAP-: absorbance at 450 nm, percentage with respect to hEphA4-SEAP-His as 100%

| Molecule | Result |
| --- | --- |
| 156 (antibody, V domains shown, synthetic humanized antibody heavy chain variable region sequence; synthetic humanized antibody light chain variable region sequence) VH: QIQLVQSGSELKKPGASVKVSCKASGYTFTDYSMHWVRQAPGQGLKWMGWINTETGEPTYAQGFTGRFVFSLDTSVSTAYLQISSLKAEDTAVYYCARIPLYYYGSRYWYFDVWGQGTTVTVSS VL: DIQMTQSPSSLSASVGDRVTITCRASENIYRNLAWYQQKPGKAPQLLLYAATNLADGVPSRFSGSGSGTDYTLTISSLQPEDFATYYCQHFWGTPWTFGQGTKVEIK | 5.7% |
| 83 (antibody, V domains shown, constant regions without entry; synthetic humanized antibody light chain variable region sequence; synthetic humanized antibody heavy chain variable region sequence) VL: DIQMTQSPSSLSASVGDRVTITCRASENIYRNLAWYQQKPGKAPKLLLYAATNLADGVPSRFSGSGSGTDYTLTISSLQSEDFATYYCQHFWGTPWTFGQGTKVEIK VH: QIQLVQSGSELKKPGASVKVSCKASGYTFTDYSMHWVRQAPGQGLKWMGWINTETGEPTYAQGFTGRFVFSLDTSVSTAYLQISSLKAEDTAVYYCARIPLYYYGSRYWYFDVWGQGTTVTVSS | 5.8% |

Origin of measurements: patent US10428140B2
